Value source: patent US20260242478A1

- measuredTarget: T1, PSMA Fab
- T1 construct: also called Anti-PSMA Fab; 006 PSMA Fab
- assayProtocol: phage binding ELISA; biotinylated PSMA Fab on neutravidin plate, clonal phage supernatant, anti-M13 HRP detection; blocking buffer alone;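 note: before phage were added, wells were preincubated with blocking buffer either containing PSMA antigen or without it, and phage were then added with no wash in between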
Where no end group is shown, it is not given here.
Property: Phage binding ELISA signal, Anti-PSMA Fab; scope: individual binders
No unit in the answer, please; the number alone is enough.

Below, each entry is followed by its recorded Phage binding ELISA signal, Anti-PSMA Fab result.
- binder: "VVVSCIPTWMCVGF (cysteine pairing not given here; also: fused to phage pIII, linker and order not given here, Peptide-180 library clone, tested as clonal phage supernatant; not shown: pIII filament protein of the bacteriophage, to which the peptide is fused) [Phage-3202]"
  measValue: 1.98
- binder: "VTPLCVPKWMCELF (cysteine pairing not given here; also: fused to phage pIII, linker and order not given here, Peptide-180 library clone, tested as clonal phage supernatant; not shown: pIII filament protein of the bacteriophage, to which the peptide is fused) [Phage-3200]"
  measValue: 1.98
- binder: "TVVKCVPEWMCEWL (cysteine pairing not given here; also: fused to phage pIII, linker and order not given here, Peptide-180 library clone, tested as clonal phage supernatant; not shown: pIII filament protein of the bacteriophage, to which the peptide is fused) [Phage-3206]"
  measValue: 1.98

(Q) So what does the record say about Phage binding ELISA signal, Anti-PSMA Fab for DHHICRPAWMCMGL (cysteine pairing not given here; also: fused to phage pIII, linker and order not given here, Peptide-180 library clone, tested as clonal phage supernatant; not shown: pIII filament protein of the bacteriophage, to which the peptide is fused) [Phage-3209] ?
(A) 1.97

(Q) Form field: reported Phage binding ELISA signal, Anti-PSMA Fab of DTPKCIPQWMCVGF (cysteine pairing not given here; also: fused to phage pIII, linker and order not given here, Peptide-180 library clone, tested as clonal phage supernatant; not shown: pIII filament protein of the bacteriophage, to which the peptide is fused) [Phage-3210]
(A) 1.97
